Biological target: T1, bacterially produced human IL-6 (human, UniProt P05231 30-212)
T1 construct: Immobilised on the Biacore chip; also called BACT IL-6 (2-1); bactIL-6
Test: SPR (Biacore), periplasmic Fab
Please go through the items and note down their kon.
Field format: number, assumed M⁻¹ s⁻¹, no unit text.

Assign kon to the following record: 48H1 (Fab, V domains shown, Periplasmic Fab; Suffix 'g2, R4' not explained; also called 48H1g2, R4) VH: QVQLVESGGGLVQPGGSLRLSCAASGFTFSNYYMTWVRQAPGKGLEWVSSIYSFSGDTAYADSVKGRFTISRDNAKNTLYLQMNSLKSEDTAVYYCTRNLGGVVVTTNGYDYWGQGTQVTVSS VL: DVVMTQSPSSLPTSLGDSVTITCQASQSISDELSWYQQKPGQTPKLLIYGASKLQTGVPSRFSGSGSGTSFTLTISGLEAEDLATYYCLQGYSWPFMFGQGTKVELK
206000

Kindly indicate its recorded kon. Item: 55C11 (Fab, V domains shown, Periplasmic Fab; Suffix 'f' not explained; also called 55C11f) VH: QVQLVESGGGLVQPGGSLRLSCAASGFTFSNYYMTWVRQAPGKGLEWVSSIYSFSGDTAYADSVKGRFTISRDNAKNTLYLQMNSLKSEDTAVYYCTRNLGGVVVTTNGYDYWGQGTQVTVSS VL: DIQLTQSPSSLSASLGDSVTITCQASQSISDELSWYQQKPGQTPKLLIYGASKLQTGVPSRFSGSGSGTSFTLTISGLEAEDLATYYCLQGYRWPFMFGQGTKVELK
228000

Quote kon reported for 55E10 (Fab, V domains shown, Periplasmic Fab; Suffix 'g1' not explained; also called 55E10g1) VH: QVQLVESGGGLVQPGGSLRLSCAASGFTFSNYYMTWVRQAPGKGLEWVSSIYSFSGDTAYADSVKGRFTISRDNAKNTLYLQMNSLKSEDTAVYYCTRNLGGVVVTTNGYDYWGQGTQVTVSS VL: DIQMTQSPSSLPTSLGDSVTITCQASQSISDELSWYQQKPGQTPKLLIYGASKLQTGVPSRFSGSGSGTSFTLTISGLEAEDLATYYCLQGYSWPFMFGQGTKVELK please.
193000

Give me measured kon, please, for this binder: 55A11 (Fab, V domains shown, Periplasmic Fab; Suffix 'd' of the label not explained; also called 55A11d) VH: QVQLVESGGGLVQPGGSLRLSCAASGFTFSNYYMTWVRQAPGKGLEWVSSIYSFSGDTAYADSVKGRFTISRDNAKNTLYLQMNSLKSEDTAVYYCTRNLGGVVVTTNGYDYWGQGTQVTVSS VL: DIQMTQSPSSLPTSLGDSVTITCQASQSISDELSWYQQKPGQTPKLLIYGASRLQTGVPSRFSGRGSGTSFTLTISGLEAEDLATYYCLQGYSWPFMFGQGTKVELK
188000
